The origin of these recorded values is patent US20180326084A1.

molecular target: T1, human AXL (full length) (human, UniProt P30530 26-894); test: flow cytometry, A431 cells pre-incubated with 10 µg/mL Gas6 (competitor)
T1 construct: also called TH1021-AXL; TH1021-hAXL
# Lookup of reported maximal binding in presence of Gas6 (% of binding in absence of Gas6) keyed by entry
valueType: maximal binding in presence of Gas6 (% of binding in absence of Gas6) (%)

# binder, measuredResult
rows = [
    ("IgG1-AXL-148 (antibody, V domains shown) VH: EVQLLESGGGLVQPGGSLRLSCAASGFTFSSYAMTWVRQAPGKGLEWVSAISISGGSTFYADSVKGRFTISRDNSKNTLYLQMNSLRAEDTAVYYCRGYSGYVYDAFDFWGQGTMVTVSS VL: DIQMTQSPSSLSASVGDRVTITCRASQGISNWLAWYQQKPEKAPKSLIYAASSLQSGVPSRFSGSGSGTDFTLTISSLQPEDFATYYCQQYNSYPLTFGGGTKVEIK", 93),
    ("IgG1-AXL-511 (antibody, V domains shown, also called clone 511) VH: EVQLLESGGGLVQPGGSLRLSCAASGFTFSSYAMNWVRQAPGKGLEWVSGISGSGGHTYHADSVKGRFTISRDNSKNTLYLQMNSLRAEDTAVYYCAKDRYDILTGYYNLLDYWGQGTLVTVSS VL: DIQMTQSPSSLSASVGDRVTITCRASQGISSWLAWYQQKPEEAPKSLIYAASSLQSGVPSRFSGSGSGTDFTLTISSLQPEDFATYYCQQYNSYPLTFGGGAKVEIK", 93),
    ("IgG1-AXL-183 (antibody, V domains shown) VH: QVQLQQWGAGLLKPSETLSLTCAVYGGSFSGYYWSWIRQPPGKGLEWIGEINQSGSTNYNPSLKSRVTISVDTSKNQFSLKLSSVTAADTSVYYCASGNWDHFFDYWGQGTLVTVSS VL: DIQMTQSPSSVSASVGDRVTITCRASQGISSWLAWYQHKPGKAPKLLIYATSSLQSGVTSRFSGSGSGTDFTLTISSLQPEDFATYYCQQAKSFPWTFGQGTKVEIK", 90),
]
